Value source: ChEMBL document CHEMBL1155509

Ki values by entry
Biological target: Prostaglandin D2 receptor 2 (Homo sapiens)
Sequence (Q9Y5Y4 whole entry): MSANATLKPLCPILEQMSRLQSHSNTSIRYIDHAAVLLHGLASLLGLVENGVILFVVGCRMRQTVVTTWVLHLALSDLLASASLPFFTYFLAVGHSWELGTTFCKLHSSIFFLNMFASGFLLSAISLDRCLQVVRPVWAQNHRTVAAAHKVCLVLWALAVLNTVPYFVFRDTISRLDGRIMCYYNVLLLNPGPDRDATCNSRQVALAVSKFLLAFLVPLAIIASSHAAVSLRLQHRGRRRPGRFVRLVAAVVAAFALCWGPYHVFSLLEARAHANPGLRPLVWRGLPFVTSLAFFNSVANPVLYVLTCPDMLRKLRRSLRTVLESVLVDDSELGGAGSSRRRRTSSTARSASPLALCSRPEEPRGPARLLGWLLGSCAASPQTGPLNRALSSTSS
Experiment: Binding affinity to human prostaglandin D2 receptor by cell based radioligand displacement assay
The response must be a number in µM with no trailing unit.

- Compound: "Cc1ccc2c(c1)c(C1NS(=O)(=O)c3ccccc31)c(C)n2CC(=O)O (racemic)"
  Ki, µM: 1.5
- Compound: "Cc1c(C2c3ccccc3S(=O)(=O)N2CCCOc2ccccc2)c2ccccc2n1CC(=O)O (racemic)"
  Ki, µM: 1.4

Now examine the next entry.
Can you share its Ki? I mean this compound: Cc1c(C2c3ccccc3S(=O)(=O)N2C(C)C)c2ccccc2n1CC(=O)O (racemic)
0.92
